System: DH5α host
PROTOCOL_NOTES: Ammonia selection (growth with amino acid substrate, host + vector)
Type: cell-based
PROTOCOL_CONDITIONS: substrate tested
ENDPOINT_NAME: background growth with negative control (host+empty vector)

MOLECULE_SMILES: N[C@@H](Cc1ccccc1Cl)C(=O)O
VAL: background growth
--
MOLECULE_SMILES: N[C@@H](Cc1ccccc1Br)C(=O)O
VAL: background growth
--
MOLECULE_SMILES: N[C@@H](Cc1ccccc1)C(=O)O
VAL: background growth

All values here come from patent US9150845B2.
